Consider the following molecules; for each one, report its microsomal CLint at 1 µM.
Experiment: Microsome clearance assay, human
Format: in vitro ADME
Settings: human microsomes 0.5 mg/mL plus NADPH, 37° C., test compound 1 microM; first value of cell
Numbers only, in µL/min/mg.

Field: example entries. Status: answers known.
• O=S(=O)(Nc1cc(F)c(OC(F)F)cc1F)c1c[nH]c(-c2nccs2)c1 = 10
• COc1nc(OCC(F)F)c(F)nc1NS(=O)(=O)c1c[nH]c(-c2ccccc2)c1 = 21

Please report microsomal CLint at 1 µM for every entry that follows.
1. N#Cc1ccc(NS(=O)(=O)c2c[nH]c(-c3ncccc3F)c2)c(F)c1
2. O=S(=O)(Nc1cc(F)c(Br)cc1F)c1c[nH]c(-c2ncccc2F)c1

1. 253
2. 107
